Test system: heterogeneous VISA (hVISA, 10)
Assay: MIC broth microdilution, hVISA
QUANTITY NAME: MIC 90% (µg/mL)

- CNC(CC(C)C)C(=O)NC1C(=O)NC(CC(N)=O)C(=O)NC2C(=O)NC3C(=O)NC(C(=O)NC(C(=O)O)c4cc(O)c(CNCCOCCOCC[N+](C)(C)C)c(O)c4-c4cc3ccc4O)C(O)c3ccc(c(Cl)c3)Oc3cc2cc(c3OC2OC(CO)C(O)C(O)C2OC2CC(C)(NCc3ccc(OCc4ccc(Cl)c(Cl)c4)cc3)C(O)C(C)O2)Oc2ccc(cc2Cl)C1O (stereo not drawn) [Compound 29]: 0.12
- CNC(CC(C)C)C(=O)NC1C(=O)NC(CC(N)=O)C(=O)NC2C(=O)NC3C(=O)NC(C(=O)NC(C(=O)NCCOCCOCCN)c4cc(O)cc(O)c4-c4cc3ccc4O)C(O)c3ccc(c(Cl)c3)Oc3cc2cc(c3OC2OC(CO)C(O)C(O)C2OC2CC(C)(NCc3ccc(OCc4ccc(Cl)c(Cl)c4)cc3)C(O)C(C)O2)Oc2ccc(cc2Cl)C1O (stereo not drawn) [Compound 27]: 0.06
- CNC(CC(C)C)C(=O)NC1C(=O)NC(CC(N)=O)C(=O)NC2C(=O)NC3C(=O)NC(C(=O)NC(C(=O)O)c4cc(O)c(CNCCOCCOCC[N+](C)(C)C)c(O)c4-c4cc3ccc4O)C(O)c3ccc(c(Cl)c3)Oc3cc2cc(c3OC2OC(CO)C(O)C(O)C2OC2CC(C)(NCc3ccc(-c4ccc(Cl)cc4)cc3)C(O)C(C)O2)Oc2ccc(cc2Cl)C1O (stereo not drawn) [Compound 13]: 0.12
